Recorded IC50 for the following compounds
System: NCI-H1876 tumor spheroid viability
Test Description: Anticancer human tumor NCI-H1876 cell line growth inhibition;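 also: spheroids exposed to compounds for seven days before the viability read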
Assay Conditions: curve of first compound; second compound 0.03 µM; spheroids with HUVEC and MSC

- Compound: "CNCc1ccc(-c2cc(-c3nc(-c4ccc(S(=O)(=O)C(C)C)cc4)cnc3N)on2)cc1 + CC[C@@]1(O)C(=O)OCc2c1cc1n(c2=O)Cc2cc3c(CN(C)C)c(O)ccc3nc2-1"
  System: "NCI-H1876 tumor spheroid viability"
  IC50: "< 9.49 nM"
- Compound: "CC(C)n1c(=O)n(C)c2cnc3cc(F)c(-c4ccc(OCCCN5CCCCC5)nc4)cc3c21 + CC[C@@]1(O)C(=O)OCc2c1cc1n(c2=O)Cc2cc3c(CN(C)C)c(O)ccc3nc2-1"
  System: "NCI-H1876 tumor spheroid viability"
  IC50: "< 31.6 nM"
- Compound: "[2H]c1nc(C)nc([2H])c1-c1cc(NC[C@@H](C)c2cccc3c(C(=O)NC)ccnc23)ncn1 + CC[C@@]1(O)C(=O)OCc2c1cc1n(c2=O)Cc2cc3c(CN(C)C)c(O)ccc3nc2-1"
  System: "NCI-H1876 tumor spheroid viability"
  IC50: "< 31.6 nM"

----------
Recorded viability, T/C for the following molecules
System: NCI-H1876 tumor spheroid viability
Test Description: Anticancer human tumor NCI-H1876 cell line growth inhibition;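 also: spheroids exposed to compounds for seven days before the viability read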;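 as to viability, T/C: percent of DMSO vehicle control viability so 100% = vehicle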
Assay Conditions: second compound 0.3 µM; first compound 0.0949 µM; stronger effect = lower value; spheroids with HUVEC and MSC
Value Type: viability, T/C (%)

- Molecule: "Cn1ncnc1[C@H]1c2n[nH]c(=O)c3cc(F)cc(c23)N[C@@H]1c1ccc(F)cc1 + CC[C@@]1(O)C(=O)OCc2c1cc1n(c2=O)Cc2cc3c(CN(C)C)c(O)ccc3nc2-1"
  Reported Result: 3.75
- Molecule: "O=C(c1cc(Cc2n[nH]c(=O)c3ccccc23)ccc1F)N1CCN(C(=O)C2CC2)CC1 + CC[C@@]1(O)C(=O)OCc2c1cc1n(c2=O)Cc2cc3c(CN(C)C)c(O)ccc3nc2-1"
  Reported Result: 4.06
- Molecule: "Cc1sc2c(c1C)C(c1ccc(Cl)cc1)=NC(CC(=O)Nc1ccc(O)cc1)c1nnc(C)n1-2 (centres undefined) + CC[C@@]1(O)C(=O)OCc2c1cc1n(c2=O)Cc2cc3c(CN(C)C)c(O)ccc3nc2-1"
  Reported Result: 3.67
- Molecule: "CNCc1ccc(-c2cc(-c3nc(-c4ccc(S(=O)(=O)C(C)C)cc4)cnc3N)on2)cc1 + CC[C@@]1(O)C(=O)OCc2c1cc1n(c2=O)Cc2cc3c(CN(C)C)c(O)ccc3nc2-1"
  Reported Result: 3.53

----------
Recorded IC50 for the following compounds
Test system: NCI-H1876 tumor spheroid viability
Test Description: Anticancer human tumor NCI-H1876 cell line growth inhibition;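 also: spheroids exposed to compounds for seven days before the viability read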
Assay Conditions: curve of first compound; second compound 0.0003 µM; spheroids with HUVEC and MSC

- Compound: "Cc1cc(C)c(CNC(=O)c2cc(-c3ccc(CN4CCOCC4)cc3)cc3c2cnn3C2CCCC2)c(=O)[nH]1 + COc1cc2c(cc1O)CCNC21CSC2c3c(OC(C)=O)c(C)c4c(c3C(COC1=O)N1C(O)C3Cc5cc(C)c(OC)c(O)c5C(C21)N3C)OCO4"
  IC50: "< 31.6 nM"
- Compound: "CC1COCCN1c1cc(-c2ccnn2C)c2ccnc(-c3ccn[nH]3)c2n1 (stereo not given) + COc1cc2c(cc1O)CCNC21CSC2c3c(OC(C)=O)c(C)c4c(c3C(COC1=O)N1C(O)C3Cc5cc(C)c(OC)c(O)c5C(C21)N3C)OCO4"
  IC50: "< 31.6 nM"
- Compound: "O=C(c1cc(Cc2n[nH]c(=O)c3ccccc23)ccc1F)N1CCN(C(=O)C2CC2)CC1 + COc1cc2c(cc1O)CCNC21CSC2c3c(OC(C)=O)c(C)c4c(c3C(COC1=O)N1C(O)C3Cc5cc(C)c(OC)c(O)c5C(C21)N3C)OCO4"
  IC50: "< 94.9 nM"
- Compound: "CNCc1ccc(-c2cc(-c3nc(-c4ccc(S(=O)(=O)C(C)C)cc4)cnc3N)on2)cc1 + COc1cc2c(cc1O)CCNC21CSC2c3c(OC(C)=O)c(C)c4c(c3C(COC1=O)N1C(O)C3Cc5cc(C)c(OC)c(O)c5C(C21)N3C)OCO4"
  IC50: "< 9.49 nM"
- Compound: "Cc1sc2c(c1C)C(c1ccc(Cl)cc1)=NC(CC(=O)Nc1ccc(O)cc1)c1nnc(C)n1-2 (stereo not given) + COc1cc2c(cc1O)CCNC21CSC2c3c(OC(C)=O)c(C)c4c(c3C(COC1=O)N1C(O)C3Cc5cc(C)c(OC)c(O)c5C(C21)N3C)OCO4"
  IC50: "< 9.49 nM"
- Compound: "COc1ccc([C@@H](O)c2cc(-c3ncnc4cc(N5CCOCC5)ccc34)c(F)cc2Cl)nn1 + COc1cc2c(cc1O)CCNC21CSC2c3c(OC(C)=O)c(C)c4c(c3C(COC1=O)N1C(O)C3Cc5cc(C)c(OC)c(O)c5C(C21)N3C)OCO4"
  IC50: "< 31.6 nM"
- Compound: "COc1cc(C)[nH]c(=O)c1CN1CCc2c(Cl)cc(C(OC)C3COC3)c(Cl)c2C1=O (stereo not given) + COc1cc2c(cc1O)CCNC21CSC2c3c(OC(C)=O)c(C)c4c(c3C(COC1=O)N1C(O)C3Cc5cc(C)c(OC)c(O)c5C(C21)N3C)OCO4"
  IC50: "< 31.6 nM"
- Compound: "Cn1ncnc1[C@H]1c2n[nH]c(=O)c3cc(F)cc(c23)N[C@@H]1c1ccc(F)cc1 + COc1cc2c(cc1O)CCNC21CSC2c3c(OC(C)=O)c(C)c4c(c3C(COC1=O)N1C(O)C3Cc5cc(C)c(OC)c(O)c5C(C21)N3C)OCO4"
  IC50: "< 9.49 nM"
- Compound: "[2H]c1nc(C)nc([2H])c1-c1cc(NC[C@@H](C)c2cccc3c(C(=O)NC)ccnc23)ncn1 + COc1cc2c(cc1O)CCNC21CSC2c3c(OC(C)=O)c(C)c4c(c3C(COC1=O)N1C(O)C3Cc5cc(C)c(OC)c(O)c5C(C21)N3C)OCO4"
  IC50: "< 31.6 nM"
- Compound: "CC(C)n1c(=O)n(C)c2cnc3cc(F)c(-c4ccc(OCCCN5CCCCC5)nc4)cc3c21 + COc1cc2c(cc1O)CCNC21CSC2c3c(OC(C)=O)c(C)c4c(c3C(COC1=O)N1C(O)C3Cc5cc(C)c(OC)c(O)c5C(C21)N3C)OCO4"
  IC50: "< 31.6 nM"

----------
Tested on: NCI-H1876 tumor spheroid viability
Test Description: Anticancer human tumor NCI-H1876 cell line growth inhibition;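 also: spheroids exposed to compounds for seven days before the viability read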;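 as to viability, T/C: percent of DMSO vehicle control viability so 100% = vehicle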
Assay Conditions: second compound 0.000949 µM; first compound 0.0949 µM; stronger effect = lower value; spheroids with HUVEC and MSC
Value Type: viability, T/C (%)

- Compound: "Cn1ncnc1[C@H]1c2n[nH]c(=O)c3cc(F)cc(c23)N[C@@H]1c1ccc(F)cc1 + COc1cc2c(cc1O)CCNC21CSC2c3c(OC(C)=O)c(C)c4c(c3C(COC1=O)N1C(O)C3Cc5cc(C)c(OC)c(O)c5C(C21)N3C)OCO4"
  System: "NCI-H1876 tumor spheroid viability"
  Value Type: "viability, T/C"
  Reported Result: 2.85
- Compound: "Cc1sc2c(c1C)C(c1ccc(Cl)cc1)=NC(CC(=O)Nc1ccc(O)cc1)c1nnc(C)n1-2 (centres undefined) + COc1cc2c(cc1O)CCNC21CSC2c3c(OC(C)=O)c(C)c4c(c3C(COC1=O)N1C(O)C3Cc5cc(C)c(OC)c(O)c5C(C21)N3C)OCO4"
  System: "NCI-H1876 tumor spheroid viability"
  Value Type: "viability, T/C"
  Reported Result: 1.98
- Compound: "CNCc1ccc(-c2cc(-c3nc(-c4ccc(S(=O)(=O)C(C)C)cc4)cnc3N)on2)cc1 + COc1cc2c(cc1O)CCNC21CSC2c3c(OC(C)=O)c(C)c4c(c3C(COC1=O)N1C(O)C3Cc5cc(C)c(OC)c(O)c5C(C21)N3C)OCO4"
  System: "NCI-H1876 tumor spheroid viability"
  Value Type: "viability, T/C"
  Reported Result: 3.12
- Compound: "O=C(c1cc(Cc2n[nH]c(=O)c3ccccc23)ccc1F)N1CCN(C(=O)C2CC2)CC1 + COc1cc2c(cc1O)CCNC21CSC2c3c(OC(C)=O)c(C)c4c(c3C(COC1=O)N1C(O)C3Cc5cc(C)c(OC)c(O)c5C(C21)N3C)OCO4"
  System: "NCI-H1876 tumor spheroid viability"
  Value Type: "viability, T/C"
  Reported Result: 2.17

----------
System: NCI-H1876 tumor spheroid viability
Test Description: Anticancer human tumor NCI-H1876 cell line growth inhibition; active = viability on the fitted dose curve at most 10% of control; inactive = the rest;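 also: spheroids exposed to compounds for seven days before the viability read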
Assay Conditions: second compound 0.03 µM; first compound 3 µM; spheroids with HUVEC and MSC
Classes used: active, inactive

- Molecule: "Cn1ncnc1[C@H]1c2n[nH]c(=O)c3cc(F)cc(c23)N[C@@H]1c1ccc(F)cc1 + CC[C@@]1(O)C(=O)OCc2c1cc1n(c2=O)Cc2cc3c(CN(C)C)c(O)ccc3nc2-1"
  System: "NCI-H1876 tumor spheroid viability"
  Class: "active"
- Molecule: "O=C(c1cc(Cc2n[nH]c(=O)c3ccccc23)ccc1F)N1CCN(C(=O)C2CC2)CC1 + CC[C@@]1(O)C(=O)OCc2c1cc1n(c2=O)Cc2cc3c(CN(C)C)c(O)ccc3nc2-1"
  System: "NCI-H1876 tumor spheroid viability"
  Class: "inactive"
- Molecule: "Cc1sc2c(c1C)C(c1ccc(Cl)cc1)=NC(CC(=O)Nc1ccc(O)cc1)c1nnc(C)n1-2 (centres undefined) + CC[C@@]1(O)C(=O)OCc2c1cc1n(c2=O)Cc2cc3c(CN(C)C)c(O)ccc3nc2-1"
  System: "NCI-H1876 tumor spheroid viability"
  Class: "active"
- Molecule: "CNCc1ccc(-c2cc(-c3nc(-c4ccc(S(=O)(=O)C(C)C)cc4)cnc3N)on2)cc1 + CC[C@@]1(O)C(=O)OCc2c1cc1n(c2=O)Cc2cc3c(CN(C)C)c(O)ccc3nc2-1"
  System: "NCI-H1876 tumor spheroid viability"
  Class: "active"
